Items are presented alongside their recorded Potency.
measurementNotes: Primary qHTS for inhibitors of nuclear receptor binding SET domain protein 2 (NSD2) in an RCH-ACV wild type WT cells (2C) (AID 1645877); further: potency means the concentration at half of the fitted maximal effect; nearly all actives have a fitted effect of over 70% in size
conditionSummary: RCH-ACV NSD2 WT (2C) viability, CellTiter-Glo, 72 h; series mostly up to 44.9 µM
Results filed as inconclusive are left out. The source made the active and inactive calls. The call rests on the fitted dose curve; in most records, active means well fitted inhibition curve with a large enough effect; inconclusive means small, poorly fitted or top-dose-only effect; inactive means no such curve, though single readings can be large or run the other way.

{"compound": "CC(=O)OC1[C@H]2[C@@H](C[C@@H](C)[C@@H]3C=CC(=O)[C@@]13C)OC(=O)[C@@H]2C (stereo not given in full)", "result": "7.28 µM (active)"}

Ask: What value of measured Potency is listed for "CC(=O)OC[C@]12[C@H](OC(C)=O)C(=O)[C@@H]3[C@@H](O)[C@@]14O[C@@]3(C)COC(=O)c1cccnc1[C@@H](C)[C@H](C)C(=O)O[C@@H]([C@H](O)[C@@H]2OC(C)=O)[C@]4(C)O" ?
Reply: 5.41 µM (active)

Ask: What value of measured Potency is listed for "CCn1c(=O)c(-c2ccc(-c3cncs3)cc2Cl)cc2cnc(Nc3ccc(N4CCN(C)CC4)cc3)nc21" ?
Reply: 2.59 µM (active)

Ask: What value of measured Potency is listed for "COc1ccc2c(NC(=O)Nc3cccc(C(F)(F)F)n3)ccnc2c1" ?
Reply: 3.25 µM (active)

----------
experimentalTarget: Cytochrome P450 2D6 (Homo sapiens) (UniProt P10635)
Sequence (P10635 whole entry, looked up): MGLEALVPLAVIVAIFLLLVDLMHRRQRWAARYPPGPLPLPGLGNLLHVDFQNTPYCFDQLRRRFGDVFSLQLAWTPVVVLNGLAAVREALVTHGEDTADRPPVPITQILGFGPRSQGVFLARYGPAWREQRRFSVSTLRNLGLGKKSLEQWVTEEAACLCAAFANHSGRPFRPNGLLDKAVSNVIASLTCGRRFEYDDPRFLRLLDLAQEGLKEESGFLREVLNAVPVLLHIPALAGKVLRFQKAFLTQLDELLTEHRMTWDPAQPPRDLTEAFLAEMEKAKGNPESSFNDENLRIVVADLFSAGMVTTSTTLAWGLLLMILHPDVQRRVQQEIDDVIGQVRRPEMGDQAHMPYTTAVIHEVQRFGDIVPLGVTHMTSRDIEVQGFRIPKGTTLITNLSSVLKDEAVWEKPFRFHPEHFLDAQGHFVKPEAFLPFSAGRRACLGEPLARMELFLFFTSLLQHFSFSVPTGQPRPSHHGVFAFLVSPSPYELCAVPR
measurementNotes: Cytochrome P450 family 2 subfamily D member 6 (CYP2D6) small molecule antagonists: luciferase biochemical (cell-free) qHTS assay (AID 1645840); further: nearly all actives have a fitted effect of over 55% in size
conditionSummary: P450-Glo CYP2D6 enzyme, luciferin luminescence, 1 h; series mostly up to 57.4 µM
Results filed as inconclusive are left out. Active and inactive are the calls of the source. Calls follow the shape of the dose curve; as a rule, active = well fitted inhibition curve with a large enough effect in the repeat runs; inconclusive = weak or mixed curves; inactive = flat fitted curve, though single readings scatter.
Give one outcome, nothing more. List: 1.0 = active, 0.0 = inactive

{"compound": "OC1(CN2CCC(COc3noc4cccc(O[C@@H]5CCOC5)c34)CC2)CCOCC1", "experimentalTarget": "Cytochrome P450 2D6 (Homo sapiens) (UniProt P10635)", "className": 1.0}

Ask: What was the test verdict on "Cc1c(C(=O)NCc2cccnc2)nn(-c2ccc(Cl)cc2Cl)c1-c1ccc(Cl)cc1" ?
Reply: 1.0

Ask: What was the test verdict on "CC(=O)c1ccc2c(c1)[C@H](NC(=O)c1ccc(F)c(Cl)c1)[C@H](O)C(C)(C)O2" ?
Reply: 1.0

Ask: What was the test verdict on CCC1C(=O)N(C)c2cnc(Nc3ccc(C(=O)NC4CCN(C)CC4)cc3OC)nc2N1C1CCCC1 (stereo not given) ?
Reply: 0.0

----------
measurementNotes: Primary qHTS for inhibitors of nuclear receptor binding SET domain protein 2 (NSD2) in an isogenic RCH-ACV NSD2 p.E1099K mutant (9B) (AID 1645876); further: nearly all actives have a fitted effect of over 70% in size
conditionSummary: RCH-ACV (leukaemia line) NSD2 E1099K (9B) viability, CellTiter-Glo, 72 h; series mostly up to 44.9 µM
Records with an inconclusive call do not appear. The source made the active and inactive calls. Calls come from the whole dose curve; as a rule, active = well fitted inhibition curve with a large enough effect; inconclusive = small, poorly fitted or top-dose-only effect; inactive = flat fitted curve, though single readings scatter.
Give one outcome, nothing more. List: active, inactive

{"molecule": "Cc1[nH]c(/C=C2\\C(=O)Nc3cc(-c4ccccc4)ccc32)c(C)c1CCC(=O)O", "className": "active"}
{"molecule": "CC[C@@H](C)Nc1cc(C(=O)NC2CC3CC[C@@H](C2)N3c2ccc(C(=O)C3CC3)cn2)c(C)cc1C(N)=O (some centres undefined)", "className": "active"}
{"molecule": "O=C(Nc1ccc(Cl)cc1)c1ccccc1NCc1ccncc1", "className": "active"}
{"molecule": "O=C(CCl)Nc1cccc(NC2=NS(=O)(=O)c3ccccc32)c1", "className": "active"}
{"molecule": "CCN(c1cc(-c2ccc(CN3CCOCC3)cc2)cc(C(=O)NCc2c(C)cc(C)[nH]c2=O)c1C)C1CCOCC1", "className": "inactive"}
{"molecule": "C=C1/C(=C/C=C2\\CCC[C@@]3(C)C2CCC3[C@H](C)/C=C/[C@@H](O)C2CC2)C[C@@H](O)C[C@@H]1O (some centres undefined)", "className": "active"}
{"molecule": "CNc1cc2[nH]c(=O)n(-c3ccc(NC(=O)NS(=O)(=O)c4ccc(Cl)s4)cc3)c(=O)c2cc1F", "className": "inactive"}
{"molecule": "COc1ccc(-c2csc(NC(=O)[C@H]3CCCCN3S(=O)(=O)c3ccc(C)cc3)n2)cc1", "className": "active"}

Ask: What was the test verdict on "Nc1cccc(CNC(=O)c2ccc(Oc3ccc(OCc4cccc(F)c4)cc3)nc2)c1" ?
Reply: active

Ask: What was the test verdict on "O=c1nc(-c2ccccn2)sc2ccccc12" ?
Reply: active

Ask: What was the test verdict on "C=C1CC[C@@H](O)[C@]2(C)CC[C@H]3C(=C)C(=O)O[C@@H]3[C@@H]12" ?
Reply: active

Ask: What was the test verdict on "COc1cc(CCC2=NN=C(NC(=O)c3ccc(N4C[C@@H](C)N[C@@H](C)C4)cc3)C2)cc(OC)c1" ?
Reply: active

Ask: What was the test verdict on "C/C(=C\CO[C@@H]1O[C@H](CO[C@H]2OC[C@](O)(CO)[C@H]2O)[C@@H](O)[C@H](O)[C@H]1O)C(C)(C)O" ?
Reply: inactive

Ask: What was the test verdict on "COC(=O)N1CCC(n2ncc3c(N4CCOCC4)nc(-c4ccc(NC(=O)NC5CC5)cc4)nc32)CC1" ?
Reply: active

Ask: What was the test verdict on "CC(=O)NCc1cccc(OC[C@@H](O)CNCCc2ccc(NS(=O)(=O)c3ccccc3)cc2)c1" ?
Reply: inactive

Ask: What was the test verdict on "COc1ccncc1C(=O)NC(=O)Nc1ccc(-c2ccccc2)c(C(F)(F)F)c1" ?
Reply: inactive

Ask: What was the test verdict on COC(=O)CC[C@@H](C)C1CCC2C3CCC4C[C@H](OC(C)=O)CCC4(C)C3C[C@H](O)C21C (some centres undefined) ?
Reply: inactive

Ask: What was the test verdict on "C=C(C)C(=O)O[C@H]1[C@H]2C(=C)C(=O)O[C@@H]2/C=C(\CO)CC/C=C(/C=O)[C@@H]1O" ?
Reply: active

Ask: What was the test verdict on "O=C(NC1CCC1)c1ccc(C#Cc2cccc(F)c2)nc1" ?
Reply: inactive
